Where do the numbers come from? From the nanobody polyreactivity screen of Harvey et al. (2022).

Assay Name: yeast display, Sf9 membrane polyspecificity reagent, FACS + sequencing; frameworks hold sequencing errors
Observation Type: polyreactivity (PSR sort gate)

QVHLVESGGGLVQAGGSLHLSCAPSGRTFGYYAKGGYRQAPGKEREFVAAISHSAGSTSYADSVKGRFTLSRDNAKNTVYLQMNSLKPEDTAVYYCATPSQLHPYEYWGQGSQVTVSS = low polyreactivity
QGQLVETGGGLVQAGGILRLSCAASGSIFGDYDMGWYRQDPGKERDLVAAITSSGGMTYYADSVKGRFTISRDNAKNTVYFQMNSLKPVDTAVYYCAAYGYGSKYRYTGYYYWGQGTQVTVSS = low polyreactivity
QVQLVESGGGLVQAGGSLRLSCAASGRIYPVYAMGWYRPAPGKERELVAAITSGVSTNYADSVKGRFTISRDNAKNTVYLQMNSLKPEDTAVYYCNKDYTTYPYYEDGYWGLGTQVTVSS = low polyreactivity
QVQLVESGGGLVQAGGSLRLSCAASGRIFQYNAMGWYRQAPGKEREFVAAIRRGGGSTYYADSVKGRFTISRDNAKNTVYLQMNSLKPEDTAVYYCAARRKRVSFYPEYDYWGQGTQVTVSS = low polyreactivity

* * *

Assay Name: yeast display, Sf9 membrane polyspecificity reagent, FACS + sequencing; frameworks hold sequencing errors
Observation Type: polyreactivity (PSR sort gate)

QVQLVESGGGLVQAGGSLRLSCAASGFIFDQYAMGWYRQAPGKERELVATINWSGGRTYYADSVKGRFTISRDNAKNTVYLQMNSLKPEDTAVYYCAADTYRTKLHSFRTGSGYDYWGQGTQVTVSS = low polyreactivity
QVQLVESGGGLVQAGGSLRLICAASGRIFNRYAMGWYRQAPGNERELVAAITWSGDRTNYADSVKGRFTISRDNAKNTVYLLMNSLKPEDTAVYYCAAADGIIESDYWGQGTQVTVSS = low polyreactivity

* * *

Assay Name: yeast display, Sf9 membrane polyspecificity reagent, FACS + sequencing; frameworks hold sequencing errors
Observation Type: polyreactivity (PSR sort gate)

QVQLVESGGGLVQAGGSLRLSCAASGSIFYYYAMGWYRQAPGKERELVAAITSGGSTYYADSVKGRFTISRDNAKNTVYLQMNSLKPEDTAVYYCAAVFYAAYLRYVWYSYDYWGQGTQVTVSS = low polyreactivity
QVQLVESGGGLVQEGGSLHLICAASGRIFGKYPMGWYRQAPGKEREFVAAIRSSDGNTYYADSVKGRFTISRDNAKNTVYLQMNSLKPDDTAVYYCNAGRVTRRDTFDYWGQGTQVTVSS = high polyreactivity
QVQLVETGGGLVQAGGSLRLSCAASGRIFLKYAMGWYRQAPGKERELVAAISRRGASTYYADSVKGRFTISRDNAKNTVYLQMNSLKPEDTAVYYCNARTSSGMDYWGQGTQVTVSS = high polyreactivity
QVQLVESGGGLVQAGGSLRLSCAASGLIFGPYTMGWYRQAPGKERELVAAISRSGGITYYADSEKGRFTISRDNAKNTVYLQMNSLKPEDTAGYYCAARYSTQWSRYDYWGQGTQVTVSS = high polyreactivity
QVQLVESGGGLVQAGCSLRLSCAASGNIFYRYAKGRYRPAPGKERELVAGITWSGGSTYYADSVKGRFTISRDNAKNTVYLQMTSLKPEDTAVYYCGQANYYWGQGTQVTVSS = low polyreactivity

Can you share its polyreactivity (PSR sort gate)? I mean this sequence: QVQLVESGGGLVQAGGSLRLTCAASGSIFISYHMGWYRQAPGKERELVAAIRSRVGSTYYSDSVKGRFTISRDNAKNPVYFQMNCLKPEDPAVYYCAAERSFSRFTTYDYWGQGTQVTVSS
low polyreactivity

What measured polyreactivity (PSR sort gate) goes with QVQLGESGGGLVQAGGSLRLSCAASGGILGYNAMGWYRQAPGKERELVATINWSGGSTYADSVKGRFTISRDNAKNTVYLQRNSLKPEDTADSYCNAVRKYWRQGTQVTVSS ?
low polyreactivity
